Values from ChEMBL document CHEMBL1136195

- TARGET_OR_TEST_SYSTEM: Proto-oncogene tyrosine-protein kinase Src (Homo sapiens, UniProt P12931)
- Sequence (P12931 2-536 limits assumed): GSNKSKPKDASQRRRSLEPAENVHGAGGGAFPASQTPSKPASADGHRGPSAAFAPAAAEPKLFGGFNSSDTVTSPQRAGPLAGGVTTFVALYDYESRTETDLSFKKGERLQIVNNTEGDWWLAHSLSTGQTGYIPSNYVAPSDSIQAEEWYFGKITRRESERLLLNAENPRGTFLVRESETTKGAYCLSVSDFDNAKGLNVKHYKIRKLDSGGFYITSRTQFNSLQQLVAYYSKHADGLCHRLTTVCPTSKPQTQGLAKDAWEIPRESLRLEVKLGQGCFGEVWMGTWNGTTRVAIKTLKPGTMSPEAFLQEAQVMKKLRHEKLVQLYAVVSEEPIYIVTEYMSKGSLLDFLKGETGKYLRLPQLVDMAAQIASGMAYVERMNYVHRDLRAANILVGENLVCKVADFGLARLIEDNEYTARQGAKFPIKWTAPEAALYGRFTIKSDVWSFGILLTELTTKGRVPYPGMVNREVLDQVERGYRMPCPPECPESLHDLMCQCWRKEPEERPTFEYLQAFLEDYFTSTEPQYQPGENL
- ASSAY_SUMMARY: Inhibition of Src protein tyrosine kinase
pIC50: −log10 of the molar value.
PROPERTY_LABEL: pIC50

I. COCCOc1cc2c(cc1OC)Cc1c(Nc3ccc(Cl)cc3Cl)ncnc1N2
II. COc1cc2ncc(C#N)c(Nc3ccc(Cl)cc3Cl)c2cc1OC
Please indicate which item has the smaller measured pIC50: I versus II Give the label under which the chosen entry appears.
II
(II: 7.52, I: 7.80)
